B1: library; a variant is named by its letters at N, in order (parent)
chain: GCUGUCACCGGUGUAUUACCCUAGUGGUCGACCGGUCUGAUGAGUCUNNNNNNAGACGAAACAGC

variants of: B1; test: normalized RNA/DNA level with ligand (relative to sTRSVctl = 100) (log10 (% of sTRSVctl)); ligand: hypoxanthine (xanthine aptamer); higher = less ribozyme self-cleavage, higher mRNA level; settings: ligand concentration (+) RNA-Seq: 5 mM, HEK293T, reporter: mCherry (pCS4076), ligand present: yes
assay.readout: normalized RNA/DNA level with ligand (log10)

>>> recorded_value("AGAUAG")
1.82
>>> recorded_value("UUUCUA")
1.91
>>> recorded_value("GACUCU")
1.94
>>> recorded_value("GAAAGU")
1.91
>>> recorded_value("GCUGUU")
1.99
>>> recorded_value("CUUUCG")
1.97
>>> recorded_value("CUGACG")
1.89
>>> recorded_value("GCUAUC")
1.97
>>> recorded_value("UUUCCA")
1.95
>>> recorded_value("AGAAGU")
1.85
>>> recorded_value("AGGACG")
1.78
>>> recorded_value("CAGGUA")
1.76
>>> recorded_value("UCCGAU")
1.97
>>> recorded_value("CCCCUU")
2
>>> recorded_value("AUCACG")
1.93
>>> recorded_value("CUUCUC")
2.04
>>> recorded_value("UACUGU")
1.95
>>> recorded_value("AGCCCA")
1.92
>>> recorded_value("GUCAAC")
1.95
>>> recorded_value("UUUCGG")
1.96
>>> recorded_value("ACACUU")
1.95
>>> recorded_value("AGACCU")
1.92
>>> recorded_value("AUUCGG")
1.87
>>> recorded_value("UGCCUC")
2
>>> recorded_value("UUAAAC")
1.91
>>> recorded_value("UAAAUG")
1.94
>>> recorded_value("CCAGUA")
1.94
>>> recorded_value("AUAGGA")
1.9
>>> recorded_value("GAAGCC")
1.95
>>> recorded_value("UAACGA")
1.91
>>> recorded_value("ACACAU")
1.92
>>> recorded_value("CAAUGA")
1.92
>>> recorded_value("UCACCU")
1.94
>>> recorded_value("UGAUUC")
1.99
>>> recorded_value("UUCAGU")
1.95
>>> recorded_value("UGCUUG")
1.92
>>> recorded_value("CGGCGG")
1.89
>>> recorded_value("GCCCUC")
1.97
>>> recorded_value("GGACAA")
1.89
>>> recorded_value("AGAAAG")
1.82
>>> recorded_value("CCUUCU")
1.98
>>> recorded_value("UGUGAU")
1.9
>>> recorded_value("UUGCCA")
1.95
>>> recorded_value("UUAUGU")
1.92
>>> recorded_value("UGUAAA")
1.92
>>> recorded_value("CGCAUU")
1.94
>>> recorded_value("GCUUAU")
1.98
>>> recorded_value("UGCUAC")
1.94
>>> recorded_value("CCCAGA")
1.93
>>> recorded_value("AUAAAG")
1.87
>>> recorded_value("GAUGCU")
1.93
>>> recorded_value("UCAACC")
1.98
>>> recorded_value("CUACUG")
1.94
>>> recorded_value("ACAUUA")
1.93
>>> recorded_value("AACAGU")
1.87
>>> recorded_value("ACCUUU")
1.97
>>> recorded_value("CCCCUA")
1.98
>>> recorded_value("GCUUUC")
1.96
>>> recorded_value("UCCGAA")
1.94
>>> recorded_value("AUAGCU")
1.94
>>> recorded_value("GGCGUU")
2.01
>>> recorded_value("CCGAGU")
1.89
>>> recorded_value("CAGCUG")
1.95
>>> recorded_value("CUCUGC")
1.89
>>> recorded_value("AGAACU")
1.96
>>> recorded_value("AGCAAU")
1.91
>>> recorded_value("GGGGGA")
1.89
>>> recorded_value("AACGAG")
1.75
>>> recorded_value("CGCUAG")
1.89
>>> recorded_value("UCAAUG")
1.85
>>> recorded_value("CGUCGA")
1.91
>>> recorded_value("CCUCAC")
1.99
>>> recorded_value("CGAAGC")
1.95
>>> recorded_value("UAGUUA")
1.94
>>> recorded_value("GGCAGA")
1.92
>>> recorded_value("UCUACC")
1.96
>>> recorded_value("CAGGCC")
2
>>> recorded_value("CUAUCC")
1.93
>>> recorded_value("AGCGGA")
1.94
>>> recorded_value("GAAAAA")
1.91
>>> recorded_value("CAGUUC")
1.91
>>> recorded_value("CGAGAG")
1.9
>>> recorded_value("CGCCAA")
1.94
>>> recorded_value("CGAACC")
1.94
>>> recorded_value("CAGCGC")
2.01
>>> recorded_value("AGGGAC")
1.92
>>> recorded_value("GGUGUU")
1.97
>>> recorded_value("GACCUC")
1.93
>>> recorded_value("GGUACC")
1.94
>>> recorded_value("AAAAUU")
1.93
>>> recorded_value("AGCUCC")
1.97

Ref: the supplement of paper PMC6757056
